B1: H2-Kb / B7 (parent)
chain 1: GQQVQQSPTSLVLQEGENAELQCNFSTSLNSMQWFYQRPGGSLVSVFYNPSGTKQSGRLTSTTVIKERRSSLHISSSQITDSGTYLCAMERDMGYKLTFGTGTSLLVDP
chain 2: EAAVTQSPRNKVAVTGGKVTLSCNQTNNHNNMYWYRQDTGHGLRLIHYSYGAGSTEKGDIPDGYKASRPSQENFSLILELATPSQTSVYFCASGDPGDQDTQYFGPGTRLLVL
chain 3: not shown
chain 4: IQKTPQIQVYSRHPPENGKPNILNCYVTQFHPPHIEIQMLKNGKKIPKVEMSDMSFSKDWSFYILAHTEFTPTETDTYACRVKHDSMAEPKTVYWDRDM
chain 5: SIINFEKL

Variants of: B1
Assay: % of reporter cells activated (NFAT-GFP), raw; further: test concentration or dose not given here
Settings: with B7; scale: % of reporter cells activated
Kindly supply the reported ratio to parent values for the records listed here.
Number only, please.

Using the record for chain 5 I3F , report its ratio to parent. 1.02

Using the record for chain 5 I3A , report its ratio to parent. 1.68

Using the record for chain 5 L8M , report its ratio to parent. 0.892

Using the record for chain 5 K7P , report its ratio to parent. 1.48

Using the record for chain 5 S1A , report its ratio to parent. 1.63

Using the record for chain 5 L8I , report its ratio to parent. 0.831

Using the record for chain 5 I2N , report its ratio to parent. 2.11

Using the record for chain 5 S1W , report its ratio to parent. 1.77

Using the record for chain 5 I2M , report its ratio to parent. 1.65

Using the record for chain 5 S1M , report its ratio to parent. 1.42

Using the record for chain 5 S1R , report its ratio to parent. 1

Using the record for chain 5 L8Q , report its ratio to parent. 0.938

Using the record for chain 5 E6G , report its ratio to parent. 1.45
